Attribution: the NIST ThermoML archive (doi:10.1021/je501041r)

// viscosity lookup, one value per entry
# experimental.setup: 318.15 K; 101 kPa; Liquid; Capillary tube (Ostwald / Ubbelohde) method
quantity.kind: viscosity (mPa·s)

> print(dat)
      test.smiles  quantity.kind  measured.result
1        CCCCCCCO      viscosity            3.224
2            CCCO      viscosity            1.241
3         CCCCCCO      viscosity            2.581
4  CC(C)CC(C)(C)C      viscosity            0.388
5          CCCCCO      viscosity            2.029

---

# experimental.setup: 313.15 K; 101 kPa; Liquid; Vibrating tube method
quantity.kind: mass density (kg/m3)

> print(dat)
      test.smiles  measurement.unit  measured.result
1        CCCCCCCO             kg/m3           808.17
2            CCCO             kg/m3           787.79
3         CCCCCCO             kg/m3           804.43
4  CC(C)CC(C)(C)C             kg/m3           675.32
5          CCCCCO             kg/m3            800.4

---

// mass density lookup, one value per entry
# experimental.setup: 308.15 K; 101 kPa; Liquid; Vibrating tube method
quantity.kind: mass density (kg/m3)

> print(dat)
      test.smiles  measurement.unit  measured.result
1        CCCCCCCO             kg/m3           811.75
2  CC(C)CC(C)(C)C             kg/m3           679.52
3          CCCCCO             kg/m3           804.16
4            CCCO             kg/m3           791.92
5         CCCCCCO             kg/m3           808.09

---

# experimental.setup: 323.15 K; 101 kPa; Liquid; Vibrating tube method
quantity.kind: mass density (kg/m3)

> print(dat)
      test.smiles  measured.result
1          CCCCCO           792.75
2         CCCCCCO           797.02
3            CCCO           779.43
4        CCCCCCCO           800.93
5  CC(C)CC(C)(C)C           666.85

---

# experimental.setup: 298.15 K; 101 kPa; Liquid; Vibrating tube method
quantity.kind: mass density (kg/m3)

> print(dat)
                                  compound  measured.result
1                     CCCCCCO [hexan-1-ol]            815.3
2                       CCCO [propan-1-ol]           800.03
3                     CCCCCO [pentan-1-ol]           810.59
4                   CCCCCCCO [heptan-1-ol]           818.82
5  CC(C)CC(C)(C)C [2,2,4-trimethylpentane]           687.82

---

# experimental.setup: 318.15 K; 101 kPa; Liquid; Vibrating tube method
// mass density lookup, one value per entry
quantity.kind: mass density (kg/m3)

> print(dat)
                                  molecule  measurement.unit  measured.result
1                       CCCO [propan-1-ol]             kg/m3           783.65
2  CC(C)CC(C)(C)C [2,2,4-trimethylpentane]             kg/m3            671.1
3                     CCCCCO [pentan-1-ol]             kg/m3           796.59
4                     CCCCCCO [hexan-1-ol]             kg/m3           800.75
5                   CCCCCCCO [heptan-1-ol]             kg/m3           804.57

---

# experimental.setup: 303.15 K; 101 kPa; Liquid; Capillary tube (Ostwald / Ubbelohde) method
quantity.kind: log10 of viscosity (log10 of the value in mPa·s)

> print(dat)
      test.smiles       quantity.kind  measured.result
1        CCCCCCCO  log10 of viscosity             0.71
2            CCCO  log10 of viscosity             0.24
3          CCCCCO  log10 of viscosity             0.48
4  CC(C)CC(C)(C)C  log10 of viscosity            -0.34
5         CCCCCCO  log10 of viscosity             0.60
